Each recorded value in this set is attributed to ChEMBL document CHEMBL6134881.

Tested on: Staphylococcus aureus
Assay: Antibacterial activity against methicillin-resistant Staphylococcus aureus ATCC 43300 assessed as reduction in bacterial growth incubated for 18 hrs by mueller hinton broth dilution method
Format: functional
Each record is given 1 (yes) if its reported MIC is strictly below 2 µg/mL. Records at or above 2 µg/mL are given 0 (no).

Worked cases, answers included:
>>> classification("CC[N+](CC)=c1sc2c(s1)C(c1ccc(Cl)cc1)Oc1ccc(C)cc1-2.F[B-](F)(F)F (stereo unspecified)")
"0 (no)"
>>> classification("O=C(O)c1ccc2cc(-c3ccc(O)c(C45CC6CC(CC(C6)C4)C5)c3)ccc2c1")
"1 (yes)"

**Query** Is the reported MIC for CC[N+](CC)=c1sc2c(s1)C(c1ccc(F)cc1)Oc1ccc(C)cc1-2.F[B-](F)(F)F (stereo unspecified) strictly below 2 µg/mL?
**Result** 0 (no)

====

The reader will find reported solubility values listed item by item below.
Test: Solubility of compound
Format: physicochemical
Give a bare numeral; the unit µM is implied.

solubility recorded for this molecule, Cn1cc(-c2ccc(Cn3cnc4c(N5CCNCC5)ncnc43)cc2)nn1 , is 31

Entry under test: Cn1cc(-c2ccc(Cn3cnc4c(N5CCNCC5)ncnc43)nc2)nn1 . Its solubility was 114

====

The molecules listed here are annotated with their MIC.
Tested on: Staphylococcus aureus
Assay: Antibacterial activity against methicillin-resistant Staphylococcus aureus ATCC 43300 assessed as reduction in bacterial growth incubated for 18 hrs by mueller hinton broth dilution method
Format: functional
The figure you give is taken to be in µg/mL; do not add the unit.

Worked examples follow.
>>> measured("OCc1ccc2cc(-c3ccc(O)c(C45CC6CC(CC(C6)C4)C5)c3)ccc2c1")
2
>>> measured("CC[N+](CC)=c1sc2c(s1)C(c1ccc(Br)cc1)Oc1ccc(C)cc1-2.F[B-](F)(F)F (stereo not drawn)")
1.95

Quick note, MIC for O=C(O)/C=C/c1ccc(-c2ccc(O)c(C34CC5CC(CC(C5)C3)C4)c2)cc1 landed at 2
